- Target Entity: biotinylated human plasma Kallikrein (Homo sapiens, UniProt P03952)
- Sequence (P03952 20-638): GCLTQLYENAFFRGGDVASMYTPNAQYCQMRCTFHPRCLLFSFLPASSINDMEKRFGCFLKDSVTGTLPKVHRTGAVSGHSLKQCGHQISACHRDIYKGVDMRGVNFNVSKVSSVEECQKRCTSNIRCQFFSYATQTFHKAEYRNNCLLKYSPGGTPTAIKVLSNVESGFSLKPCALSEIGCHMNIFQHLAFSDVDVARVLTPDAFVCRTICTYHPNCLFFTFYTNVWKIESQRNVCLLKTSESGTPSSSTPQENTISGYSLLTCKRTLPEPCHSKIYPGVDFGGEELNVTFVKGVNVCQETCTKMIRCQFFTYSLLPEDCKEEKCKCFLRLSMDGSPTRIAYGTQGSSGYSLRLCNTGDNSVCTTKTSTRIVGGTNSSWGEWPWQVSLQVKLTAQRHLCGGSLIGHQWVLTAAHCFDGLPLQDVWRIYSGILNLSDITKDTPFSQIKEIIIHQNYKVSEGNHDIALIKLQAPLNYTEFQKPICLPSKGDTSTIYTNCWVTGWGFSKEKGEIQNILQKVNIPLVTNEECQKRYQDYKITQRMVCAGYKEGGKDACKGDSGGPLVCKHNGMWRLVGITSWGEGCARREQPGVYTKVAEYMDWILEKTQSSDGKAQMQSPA
- Test Protocol: Phage binding assay of individual clones, randomisation of peptide domains
- Experimental Setup: WPAR domain fixed, positions 1, 6, 7, 8, 9 & 10 randomised; top 50
Reported Rank (sequences ranked according to Kallikrein binding) values follow for various substances
Property Measured: Rank (sequences ranked according to Kallikrein binding)

INSERT INTO results (substance, target_entity, recorded_result) VALUES
  ('SEQ ID NO: 128 (CAWPARCTHTDFC; Synthetic sequence Kallikrein binder containing a WPAR motif)', 'biotinylated human plasma Kallikrein (Homo sapiens, UniProt P03952)', 15),
  ('SEQ ID NO: 127 (CAWPARCTHVDLC; Synthetic sequence Kallikrein binder containing a WPAR motif)', 'biotinylated human plasma Kallikrein (Homo sapiens, UniProt P03952)', 14),
  ('SEQ ID NO: 153 (CAWPARCTHQTMC; Synthetic sequence Kallikrein binder containing a WPAR motif)', 'biotinylated human plasma Kallikrein (Homo sapiens, UniProt P03952)', 40),
  ('SEQ ID NO: 132 (CQWPARCTHSDLC; Synthetic sequence Kallikrein binder containing a WPAR motif)', 'biotinylated human plasma Kallikrein (Homo sapiens, UniProt P03952)', 19),
  ('SEQ ID NO: 152 (CDWPARCMHQEFC; Synthetic sequence Kallikrein binder containing a WPAR motif)', 'biotinylated human plasma Kallikrein (Homo sapiens, UniProt P03952)', 39),
  ('SEQ ID NO: 123 (CTWPARCTHTDLC; Synthetic sequence Kallikrein binder containing a WPAR motif)', 'biotinylated human plasma Kallikrein (Homo sapiens, UniProt P03952)', 10),
  ('SEQ ID NO: 134 (CRWPARCTHQDLC; Synthetic sequence Kallikrein binder containing a WPAR motif)', 'biotinylated human plasma Kallikrein (Homo sapiens, UniProt P03952)', 21),
  ('SEQ ID NO: 148 (CTWPARCTHTDMC; Synthetic sequence Kallikrein binder containing a WPAR motif)', 'biotinylated human plasma Kallikrein (Homo sapiens, UniProt P03952)', 35),
  ('SEQ ID NO: 157 (CLWPARCLTTELC; Synthetic sequence Kallikrein binder containing a WPAR motif)', 'biotinylated human plasma Kallikrein (Homo sapiens, UniProt P03952)', 44),
  ('SEQ ID NO: 161 (CSWPARCTHSDLC; Synthetic sequence Kallikrein binder containing a WPAR motif)', 'biotinylated human plasma Kallikrein (Homo sapiens, UniProt P03952)', 48),
  ('SEQ ID NO: 116 (CHWPARCTHQDLC; Synthetic sequence Kallikrein binder containing a WPAR motif)', 'biotinylated human plasma Kallikrein (Homo sapiens, UniProt P03952)', 3),
  ('SEQ ID NO: 120 (CAWPARCTHTDLC; Synthetic sequence Kallikrein binder containing a WPAR motif)', 'biotinylated human plasma Kallikrein (Homo sapiens, UniProt P03952)', 7),
  ('SEQ ID NO: 137 (CSWPARCTHSHLC; Synthetic sequence Kallikrein binder containing a WPAR motif)', 'biotinylated human plasma Kallikrein (Homo sapiens, UniProt P03952)', 24),
  ('SEQ ID NO: 117 (CPWPARCTHQDLC; Synthetic sequence Kallikrein binder containing a WPAR motif)', 'biotinylated human plasma Kallikrein (Homo sapiens, UniProt P03952)', 4),
  ('SEQ ID NO: 163 (CPWPARCLHTDLC; Synthetic sequence Kallikrein binder containing a WPAR motif)', 'biotinylated human plasma Kallikrein (Homo sapiens, UniProt P03952)', 50),
  ('SEQ ID NO: 144 (CSWPARCTHTELC; Synthetic sequence Kallikrein binder containing a WPAR motif)', 'biotinylated human plasma Kallikrein (Homo sapiens, UniProt P03952)', 31),
  ('SEQ ID NO: 133 (CLWPARCTHADLC; Synthetic sequence Kallikrein binder containing a WPAR motif)', 'biotinylated human plasma Kallikrein (Homo sapiens, UniProt P03952)', 20),
  ('SEQ ID NO: 138 (CVWPARCTHQDLC; Synthetic sequence Kallikrein binder containing a WPAR motif)', 'biotinylated human plasma Kallikrein (Homo sapiens, UniProt P03952)', 25),
  ('SEQ ID NO: 156 (CEWPARCLHTDLC; Synthetic sequence Kallikrein binder containing a WPAR motif)', 'biotinylated human plasma Kallikrein (Homo sapiens, UniProt P03952)', 43),
  ('SEQ ID NO: 147 (CSWPARCIHQDLC; Synthetic sequence Kallikrein binder containing a WPAR motif)', 'biotinylated human plasma Kallikrein (Homo sapiens, UniProt P03952)', 34),
  ('SEQ ID NO: 126 (CSWPARCLHTDLC; Synthetic sequence Kallikrein binder containing a WPAR motif)', 'biotinylated human plasma Kallikrein (Homo sapiens, UniProt P03952)', 13),
  ('SEQ ID NO: 143 (CPWPARCTHQNLC; Synthetic sequence Kallikrein binder containing a WPAR motif)', 'biotinylated human plasma Kallikrein (Homo sapiens, UniProt P03952)', 30),
  ('SEQ ID NO: 208 (CSWPARCTHQDLC; Synthetic sequence 06-34-03)', 'biotinylated human plasma Kallikrein (Homo sapiens, UniProt P03952)', 2),
  ('SEQ ID NO: 139 (CTWPARCTHADLC; Synthetic sequence Kallikrein binder containing a WPAR motif)', 'biotinylated human plasma Kallikrein (Homo sapiens, UniProt P03952)', 26),
  ('SEQ ID NO: 162 (CSWPARCLHDDLC; Synthetic sequence Kallikrein binder containing a WPAR motif)', 'biotinylated human plasma Kallikrein (Homo sapiens, UniProt P03952)', 49),
  ('SEQ ID NO: 142 (CAWPARCTHYDLC; Synthetic sequence Kallikrein binder containing a WPAR motif)', 'biotinylated human plasma Kallikrein (Homo sapiens, UniProt P03952)', 29);

----------
- Target Entity: Biotinylated hPK (Homo sapiens, UniProt P03952)
- Construct: IHPKA, from human plasma; purchased Innovative Research, Novi, MI, USA IHPKA; host or cells: human plasma
- Sequence (P03952 20-638): as above
- Test Protocol: Phage selections, abundance of sequences in selection outputs
- Type: binding
- Experimental Setup: randomised WPAR motif at positions 2, 3, 4 & 5 within the 06-34-03 sequence
Frequency (relative abundance in the total selection outputs) values for the substances below.
Property Measured: Frequency (relative abundance in the total selection outputs)

INSERT INTO results (substance, recorded_result) VALUES
  ('SEQ ID NO: 96 (CSWHARCTHQDLC; Synthetic sequence Kallikrein binder identified from selections using a randomised WPAR motif at positions 2, 3, 4 & 5 within the 06-34-03 sequence of PCT/EP2012/069898 (SEQ ID NO 58))', 1),
  ('SEQ ID NO: 113 (CSHRRWCTHQDLC; Synthetic sequence Kallikrein binder identified from selections using a randomised WPAR motif at positions 2, 3, 4 & 5 within the 06-34-03 sequence of PCT/EP2012/069898 (SEQ ID NO 58))', 1),
  ('SEQ ID NO: 91 (CSWSARCTHQDLC; Synthetic sequence Kallikrein binder identified from selections using a randomised WPAR motif at positions 2, 3, 4 & 5 within the 06-34-03 sequence of PCT/EP2012/069898 (SEQ ID NO 58))', 10);

----------
- Target Entity: human plasma Kallikrein (Homo sapiens, UniProt P03952)
- Construct: purchased Stratech, UK
- Sequence (P03952 20-638): as above
- Test Protocol: Functional enzyme inhibition assay, fluorogenic substrate Z-PheArg-AMC
- Format: biochemical
- Experimental Setup: Ki (nM) (human kallikrein), Ac-06-34-18(TMB)-NH2 series
Numbered stars: 1 amine (or outer) side, 2 acyl side, 3 side chain; on linkers, the order of the positions; unused ones are H or OH. Bridge positions count the residues as written; N and C are the ends. Square brackets hold non-standard residues; d marks the D form. Peptide text beside a SMILES is read from it. Pro(4R-Bn) = O=C(O)[C@@H]1C[C@@H](Cc2ccccc2)CN1; TBMB = c1c(C[*:1])cc(C[*:3])cc1C[*:2]; Abu = CC[C@H](N)C(=O)O
Property Measured: Ki (nM)

INSERT INTO assay_data (compound, target_entity, recorded_result) VALUES
  ('CC(=O)N[C@H]1CSCc2cc3cc(c2)CSC[C@H](NC(=O)[C@H](CCCNC(=N)N)NC(=O)[C@H](C)NC(=O)[C@@H]2C[C@@H](Cc4ccccc4)CN2C(=O)[C@H](Cc2c[nH]c4ccccc24)NC(=O)[C@H](CO)NC1=O)C(=O)N[C@@H](CC(C)C)C(=O)N[C@@H](Cc1c[nH]cn1)C(=O)N[C@@H](CCC(N)=O)C(=O)N[C@@H](CC(=O)O)C(=O)N[C@@H](CC(C)C)C(=O)N[C@H](C(N)=O)CSC3 [Ac-(06-34-18) 4Benzyl Pro3] (Ac-CSW[Pro(4R-Bn)]ARCLHQDLC-NH2; linker 1-7-13 via TBMB)', 'human plasma Kallikrein (Homo sapiens, UniProt P03952)', 191),
  ('CC[C@@H]1NC(=O)[C@@H]2CCCN2C(=O)[C@H](Cc2c[nH]c3ccccc23)NC(=O)[C@H](CO)NC(=O)[C@@H](NC(C)=O)CSCc2cc3cc(c2)CSC[C@H](NC(=O)[C@H](CCCNC(=N)N)NC1=O)C(=O)N[C@@H](CC(C)C)C(=O)N[C@@H](Cc1c[nH]cn1)C(=O)N[C@@H](CCC(N)=O)C(=O)N[C@@H](CC(=O)O)C(=O)N[C@@H](CC(C)C)C(=O)N[C@H](C(N)=O)CSC3 [Ac-(06-34-18) Aba4] (Ac-CSWP[Abu]RCLHQDLC-NH2; linker 1-7-13 via TBMB)', 'human plasma Kallikrein (Homo sapiens, UniProt P03952)', 0.07);
